- experimental protocol: recombinant barcode read abundance after kanamycin selection (control-corrected) (log10(CPM+1)); higher = more efficient recombination; sequences stand for … in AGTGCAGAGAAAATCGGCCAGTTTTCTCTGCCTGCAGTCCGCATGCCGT…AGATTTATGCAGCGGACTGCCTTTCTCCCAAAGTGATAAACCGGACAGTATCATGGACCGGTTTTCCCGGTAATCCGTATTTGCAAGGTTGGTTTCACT; site = the 11-nt target;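 note: IS621 recombinase and bridge RNA in Escherichia coli cells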
Everything with recombinant barcode read abundance (log10) lower than 0.08 is n; everything else, including exactly 0.08, is y.

Here's what some known entries look like.
>>> label_value("CTATATACTTGGGTTCTAACCTGTTGCCA (site CTGTATACTTG)")
"n"
>>> label_value("GGAAAGACTTGGGTTCTAACCTGTTGCCT (site GGAAAGACTAG)")
"y"
>>> label_value("TAGGCTCCTTGGGTTCTAACCTGTTGCTT (site TACGGTCCTAA)")
"n"
>>> label_value("GAGGCGGCTTGGGTTCTAACCTGTTGCTT (site GAGACGGCTAA)")
"y"
>>> label_value("CGAACTACTTGGGTTCTAACCTGTTGCAT (site CGAACTACTAA)")
"y"
>>> label_value("TCTCGAGCTTGGGTTCTAACCTGTTGCGA (site CTGGCGCCTAT)")
"y"
>>> label_value("CACGCAACTTGGGTTCTAACCTGTTGCTT (site CACGCAACTAA)")
"y"
>>> label_value("CTCGATTCTTGGGTTCTAACCTGTTGCAT (site CTCCATTCTAT)")
"y"
>>> label_value("GTAAGTGCTTGGGTTCTAACCTGTTGCAT (site ACCCAGTCTCC)")
"y"
>>> label_value("GGGGCGTCTTGGGTTCTAACCTGTTGCCG (site GGGCAGTCTCG)")
"y"

Query: Does the sequence CTACTAGCTTGGGTTCTAACCTGTTGCAT (site CTACTAGCTAT) have recorded recombinant barcode read abundance (log10) that is 0.08 or more?
Result: y

Query: // inclusive: recombinant barcode read abundance (log10) at least 0.08? input: AAGAGCACTTGGGTTCTAACCTGTTGCCT (site GAGAGCACTAG)
Result: y
